This collection of values is drawn from PubChem BioAssay (NCI).

- Test system: K-562 leukemia
- assay_procedure: NCI tumour cell line growth inhibition, 48 h
property_label: TGI

[
  {
    "molecule": "CN(C)CCC1(C2=CCCC2)CC/C(=C\\c2ccccc2Cl)C1=O (stereo not given)",
    "reported": "14.5 µM"
  },
  {
    "molecule": "CN(C)Cc1cc(N=Nc2ccc(Cl)cc2)ccc1O",
    "reported": "35.2 µM"
  },
  {
    "molecule": "CCCCN=C1OCc2[nH][nH]c(=O)c21",
    "reported": "> 100 µM"
  },
  {
    "molecule": "Cc1nnc(-c2ccc(C)c(-c3ccc(C(=O)NCc4ccc(Cl)cc4)cc3)c2)o1",
    "reported": "> 25 µM"
  },
  {
    "molecule": "CCN(CC)COC(=S)S",
    "reported": "> 100 µM"
  },
  {
    "molecule": "CCC[CH2][Sn]([CH2]CCC)([O]C(=O)c1cc(F)cc(F)c1)[O][Sn]([CH2]CCC)([CH2]CCC)[O]C(=O)c1cc(F)cc(F)c1",
    "reported": "1.12 µM"
  },
  {
    "molecule": "COc1ccc2c(c1)N(CCO)C1=C(C(=O)OC1)C2c1ccccc1 (stereo not given)",
    "reported": "> 50 µM"
  },
  {
    "molecule": "CC(NC(NC(C)C12CC3CC(CC(C3)C1)C2)=C(C(Cl)=C(Cl)Cl)[N+](=O)[O-])C12CC3CC(CC(C3)C1)C2 (stereo not given)",
    "reported": "> 40 µM"
  },
  {
    "molecule": "COc1ccc(N2C(=O)/C(=C\\c3cccc(Oc4ccccc4)c3)SC2c2ccccc2)cc1 (stereo not given)",
    "reported": "> 100 µM"
  },
  {
    "molecule": "CN(C)C(=O)C1CCN(Cc2c[nH]c3ccccc23)CC1",
    "reported": "> 100 µM"
  },
  {
    "molecule": "O=C1C(Cl)=C(N2CCN(c3ccccn3)CC2)C(=O)c2ncccc21",
    "reported": "5.78 µM"
  },
  {
    "molecule": "Nc1ccccc1N=Nc1c(S(=O)(=O)O)cc2cc(S(=O)(=O)O)cc(O)c2c1O",
    "reported": "> 100 µM"
  },
  {
    "molecule": "N#CCCN(CCC#N)c1ccc(/C=C2\\N=C(c3cc([N+](=O)[O-])ccc3Cl)N(NC(=O)CC(=O)Nc3ccccc3Cl)C2=O)cc1",
    "reported": "> 100 µM"
  },
  {
    "molecule": "CC(=O)[O-].[O-]c1c(Cl)cc(Cl)cc1/C=N/Nc1ccccn1.[Zn+2]",
    "reported": "> 100 µM"
  },
  {
    "molecule": "CCCCCCCCCCCCCCCC(=O)OC1C(O)C(CO)OC(OC)C1NC(=O)N(CCCl)N=O (stereo not given)",
    "reported": "66.1 µM"
  },
  {
    "molecule": "CN(C)c1ccc(C(=NN)c2ccc(N(C)C)cc2)cc1",
    "reported": "> 56.9 µM"
  },
  {
    "molecule": "C=C1CC(CN2CCC(=O)NC2=O)(c2ccccc2)OC1=O (stereo not given)",
    "reported": "10.9 µM"
  },
  {
    "molecule": "N#Cc1cc(NC(=O)c2ccccc2)c(=O)n2c1[nH]c1ccccc12",
    "reported": "> 100 µM"
  },
  {
    "molecule": "Cc1ccc(NC(=O)CC/C(CC(=O)C(C)(C)C)=N\\Nc2ccc([N+](=O)[O-])cc2[N+](=O)[O-])cc1C",
    "reported": "> 100 µM"
  },
  {
    "molecule": "C[C@]12CC[C@@H]3c4ccc(OCCN5CCCC5)cc4CC[C@H]3[C@@H]1CCC2=O",
    "reported": "> 100 µM"
  }
]

----------
- System: IGROV1 ovarian
- assay_procedure: NCI tumour cell line growth inhibition, 48 h; in the data active = GI50 below about 0.43 µM; inactive = the rest
Outcome codes: active, inactive

[
  {
    "compound": "O=C(Nc1cccnc1)c1ccc2ccc3ccc(C(=O)Nc4cccnc4)nc3c2n1",
    "system_name": "IGROV1 ovarian",
    "assigned_label": "active"
  },
  {
    "compound": "O=C(NNC(=S)Nc1ccccc1)c1ccccn1",
    "system_name": "IGROV1 ovarian",
    "assigned_label": "inactive"
  },
  {
    "compound": "CC[C@]12C=CCN3CC[C@@]4(c5ccc(OC)cc5N(C)[C@H]4[C@@](O)(C(=O)OC)[C@@H]1OC(=O)CCC(=O)N[C@H](Cc1c[nH]c4ccccc14)C(=O)OC)[C@@H]32",
    "system_name": "IGROV1 ovarian",
    "assigned_label": "inactive"
  },
  {
    "compound": "O=C(O)Cn1c2c(c3c(O)cccc31)C(=O)c1ccccc1-2",
    "system_name": "IGROV1 ovarian",
    "assigned_label": "inactive"
  },
  {
    "compound": "CC(C)(C)NC/C(=C\\c1ccccc1)C(=O)c1ccccc1",
    "system_name": "IGROV1 ovarian",
    "assigned_label": "inactive"
  },
  {
    "compound": "COc1cc2ncn(-c3cc(OCc4ccccc4C(F)(F)F)c(C(C)=O)s3)c2cc1OC",
    "system_name": "IGROV1 ovarian",
    "assigned_label": "inactive"
  },
  {
    "compound": "CSc1ccc(C2=NN(C(C)=O)C(c3ccc(F)cc3)C2)cc1 (stereo not given)",
    "system_name": "IGROV1 ovarian",
    "assigned_label": "inactive"
  },
  {
    "compound": "CC(C)CCC(=O)[C@@H](C)[C@H]1[C@@H](OC2OCC(O)C(O)C2NS(C)(=O)=O)C[C@H]2[C@@H]3CC=C4C[C@@H](O)CC[C@]4(C)[C@H]3CC[C@]12C (stereo not given in full)",
    "system_name": "IGROV1 ovarian",
    "assigned_label": "inactive"
  },
  {
    "compound": "CCOC(=O)c1cc(-c2ccc(OC)c(OC)c2)[nH]c1N/N=C/c1c(Cl)cccc1Cl",
    "system_name": "IGROV1 ovarian",
    "assigned_label": "inactive"
  },
  {
    "compound": "O=C(Cn1c(C(=O)c2ccccc2)nc2ccccc21)c1ccc(F)cc1",
    "system_name": "IGROV1 ovarian",
    "assigned_label": "inactive"
  }
]

----------
- Tested on: KM12 colon
- assay_procedure: NCI tumour cell line growth inhibition, 48 h

[
  {
    "molecule": "COc1cc2ncn(-c3cc(OCc4ccccc4C(F)(F)F)c(C(C)=O)s3)c2cc1OC",
    "GI50": "> 25 µM"
  },
  {
    "molecule": "O=C(NN1C(=O)CSC12CCCC2)C(O)c1ccccc1 (stereo not given)",
    "GI50": "> 100 µM"
  },
  {
    "molecule": "Cc1nnc(-c2ccc(C)c(-c3ccc(C(=O)NCc4ccc(Cl)cc4)cc3)c2)o1",
    "GI50": "11 µM"
  },
  {
    "molecule": "CCOC(=O)c1cc(-c2ccc(OC)c(OC)c2)[nH]c1N/N=C/c1c(Cl)cccc1Cl",
    "GI50": "0.636 µM"
  },
  {
    "molecule": "Cc1cc(NNC(=O)c2ccccc2O)nc(Nc2nc3ccccc3o2)n1",
    "GI50": "1.01 µM"
  }
]

----------
Consider the following molecules and their measured log10 of TGI readings.
- Test system: SNB-75 CNS
- assay_procedure: NCI tumour cell line growth inhibition, 48 h
property_label: log10 of TGI (log10 of the value in µM)

[
  {
    "molecule": "CCCCCCCCCCCCCCCC(=O)OC1C(O)C(CO)OC(OC)C1NC(=O)N(CCCl)N=O (configuration not stated)",
    "log10 of TGI": 1.39
  },
  {
    "molecule": "O=C(O)c1ccc(Nc2nc3cc(C(F)(F)F)ccc3nc2-c2ccccc2)cc1",
    "log10 of TGI": 1.81
  },
  {
    "molecule": "CCN(CC)CCNc1ccc2nnn3c4ccccc4c(=O)c1c23",
    "log10 of TGI": 1.08
  },
  {
    "molecule": "C=C1C(=O)OC2CC3(C)CCCC(C)C3=CC12 (configuration not stated)",
    "log10 of TGI": 1.05
  },
  {
    "molecule": "CCOC(=O)c1csc(NC(=O)COc2cccc(/C=C3\\CSc4ccccc4C3=O)c2)n1",
    "log10 of TGI": 0.65
  }
]

----------
- System: MDA-N
- assay_procedure: NCI tumour cell line growth inhibition, 48 h
The following molecules are listed with their measured TGI values.
property_label: TGI (µM)

[
  {
    "molecule": "c1ccc(C2=Nc3cccc4cccc(c34)N2)cc1",
    "system_name": "MDA-N",
    "modifier_sign": ">",
    "reported": 100
  },
  {
    "molecule": "COC(=O)c1c(C(=O)OC)c2c3ccccc3n(C)c2c2c1c1ccccc1n2C",
    "system_name": "MDA-N",
    "modifier_sign": ">",
    "reported": 100
  },
  {
    "molecule": "BrCC(Br)(c1ccccc1)c1ccccc1-c1cc(-c2ccccc2)cc(-c2ccccc2)n1 (stereo unspecified)",
    "system_name": "MDA-N",
    "modifier_sign": "=",
    "reported": 10.9
  },
  {
    "molecule": "COc1ccc(/C=C2/CCS(=O)(=O)c3ccc(C)cc3C2=O)cc1OC",
    "system_name": "MDA-N",
    "modifier_sign": "=",
    "reported": 49.5
  },
  {
    "molecule": "CN(C)c1ccc(C(=NN)c2ccc(N(C)C)cc2)cc1",
    "system_name": "MDA-N",
    "modifier_sign": "=",
    "reported": 24.4
  },
  {
    "molecule": "COc1ccc(Nc2nc3ccccc3nc2C(=O)O)cc1OC",
    "system_name": "MDA-N",
    "modifier_sign": ">",
    "reported": 100
  },
  {
    "molecule": "O=C(O)CCC(NC(=O)c1ccc(CNc2nc3ccccc3nc2C(=O)O)cc1)C(=O)O (stereo unspecified)",
    "system_name": "MDA-N",
    "modifier_sign": ">",
    "reported": 100
  },
  {
    "molecule": "CC1=CC(C)(C)Nc2ccc(CSc3ccccc3)cc21",
    "system_name": "MDA-N",
    "modifier_sign": "=",
    "reported": 69.9
  },
  {
    "molecule": "C[C@]12CC[C@@H]3c4ccc(OCCN5CCCC5)cc4CC[C@H]3[C@@H]1CCC2=O",
    "system_name": "MDA-N",
    "modifier_sign": "=",
    "reported": 64.3
  },
  {
    "molecule": "CC1(C)CN=C(Nc2ccc(F)c(F)c2)S1",
    "system_name": "MDA-N",
    "modifier_sign": ">",
    "reported": 100
  },
  {
    "molecule": "COC(=O)C(=O)C(C(=O)C(=O)Nc1ccc(C)cc1)c1nc2ccc(C(=O)c3ccccc3)cc2[nH]c1=O (stereo unspecified)",
    "system_name": "MDA-N",
    "modifier_sign": ">",
    "reported": 100
  }
]
